From: paper PMC4657098

Target: α3β3γ2 GABAA/BzR (Homo sapiens, UniProt P18507+P34903)
Assay: Competition binding to HEK cell membranes, α3β3γ2
Design: expressed in transfected cells
Details: Figure 17; read-out: Binding data Ki α3
assay-readout: Ki

Reported Ki for α3β3γ2 GABAA/BzR (Homo sapiens, UniProt P18507+P34903), given CCOC(=O)c1ncn2c1CN=C(c1ccccc1)c1cc(-c3ccccc3)ccc1-2 ?
> 2000 nM

###

Molecular target: α6β3γ2 GABAA/BzR (Homo sapiens, UniProt P18507+Q16445)
Test: Competition binding to HEK cell membranes, α6β3γ2
Parameters: expressed in transfected cells
Details: read-out: Ki α6
pKi: −log10 of the molar value.
Label fulfilled for high-side pKi (at or above 6) and not fulfilled for low-side pKi (below it).

molecule | target-or-test-system | label-value
C#Cc1ccc2c(c1)C(=O)N(C)Cc1c(C(=O)OC(C)(C)C)ncn1-2 | α6β3γ2 GABAA/BzR (Homo sapiens, UniProt P18507+Q16445) | fulfilled

In plain terms: is recorded pKi at least 6 for COc1ccc2c(c1)C(=O)N1CCC1c1c(C(=O)OC(C)(C)C)ncn1-2 (stereo not drawn) ?
fulfilled

Given CN1Cc2c(C(=O)OC(C)(C)C)ncn2-c2ccc(N3CCCC3)cc2C1=O , state whether its pKi is at least 6.
fulfilled

In plain terms: is recorded pKi at least 6 for C#Cc1ccc2c(c1)C(c1ccccc1F)=NCC(=O)N2 [JYI-60] ?
not fulfilled
